Test system: Leishmania donovani
Experiment: Antileishmanial activity against Leishmania donovani promastigotes after 48 hrs by alamar blue assay
Format: functional, organism-based
Observation Type: IC50 (µg/mL)
One number for each entry, in µg/mL.

[
  {
    "Compound": "C[C@H]1N[C@@H](CCCCCCCCCCC2=C[C@@H](CCCCCCCCCC[C@@H]3CC[C@H](O)[C@@H](C)N3)[C@@H]3CCCN3C2)CC[C@H]1O [ISOPROSOPILOSINE]",
    "IC50 [µg/mL]": 0.26
  },
  {
    "Compound": "C[C@@H]1N[C@H](CCCCCCCCCCc2cc(CCCCCCCCCC[C@@H]3CC[C@H](O)[C@@H](C)N3)c3[n+](c2)CCC3)CC[C@H]1O.[Cl-] [PROSOPILOSIDINE]",
    "IC50 [µg/mL]": 0.7
  }
]

Consider the record given below.
Data request: Complete the entry with IC50 for C[C@@H]1N[C@H](CCCCCCCCCCC2=C[C@@H](CCCCCCCCCC[C@@H]3CC[C@@H](O)[C@H](C)N3)[C@@H]3CCCN3C2)CC[C@H]1O [PROSOPILOSINE]
Data returned: 0.65

====

Test system: Aspergillus fumigatus
Test: Antimicrobial activity against Aspergillus fumigatus ATCC 90906 by alamar blue assay
Type: functional, organism-based
Settings: Aspergillus fumigatus, ATCC 90906
Please use TRUE for MIC under 0.6 µg/mL and FALSE for everything else, ties included.

Please review the entries below; each comes with its answer.
[
  {
    "Smiles": "C[C@@H]1N[C@H](CCCCCCCCCCc2cc(CCCCCCCCCC[C@@H]3CC[C@H](O)[C@@H](C)N3)c3[n+](c2)CCC3)CC[C@H]1O.[Cl-]",
    "Assayed System": "Aspergillus fumigatus",
    "Group": "FALSE"
  },
  {
    "Smiles": "C[C@@H]1N[C@H](CCCCCCCCCCC2=C[C@@H](CCCCCCCCCC[C@@H]3CC[C@@H](O)[C@H](C)N3)[C@@H]3CCCN3C2)CC[C@H]1O",
    "Assayed System": "Aspergillus fumigatus",
    "Group": "FALSE"
  }
]

Data request: Consider C[C@@H]1[C@H](O)[C@@H](C)/C=C/C=C/C=C/C=C/C=C/C=C/C=C/[C@H](O[C@@H]2O[C@H](C)[C@@H](O)[C@H](N)[C@@H]2O)C[C@@H]2O[C@](O)(C[C@@H](O)C[C@@H](O)[C@H](O)CC[C@@H](O)C[C@@H](O)CC(=O)O[C@H]1C)C[C@H](O)[C@H]2C(=O)O . Does its MIC lie strictly below 0.6 µg/mL?
Data returned: FALSE

====

Tested on: Staphylococcus aureus
Assay: Antimicrobial activity against methicillin-resistant Staphylococcus aureus ATCC 43300 by NCCLS method
Type: functional, organism-based
Record form. Attribute: MIC. Fill in for each entry.
One number for each entry, in µg/mL.

Completed entries (count: 3):
[
  {
    "Compound": "O=C(O)c1cn(C2CC2)c2cc(N3CCNCC3)c(F)cc2c1=O [CIPROFLOXACIN]",
    "MIC, µg/mL": 0.3
  },
  {
    "Compound": "C[C@@H]1N[C@H](CCCCCCCCCCc2cc(CCCCCCCCCC[C@@H]3CC[C@@H](O)[C@H](C)N3)c3[n+](c2)CCC3)CC[C@H]1O.[Cl-] [PROSOPILOSIDINE DIHYDROCHLORIDE]",
    "MIC, µg/mL": 2.5
  },
  {
    "Compound": "C[C@H]1N[C@@H](CCCCCCCCCCC2=C[C@@H](CCCCCCCCCC[C@@H]3CC[C@H](O)[C@@H](C)N3)[C@@H]3CCCN3C2)CC[C@H]1O [ISOPROSOPILOSINE]",
    "MIC, µg/mL": 2.5
  }
]

Data request: Complete the entry with MIC for C[C@@H]1N[C@H](CCCCCCCCCCc2cc(CCCCCCCCCC[C@@H]3CC[C@H](O)[C@@H](C)N3)c3[n+](c2)CCC3)CC[C@H]1O.[Cl-] [PROSOPILOSIDINE]
Data returned: 1.25

====

Test system: Leishmania donovani
Assay: Antileishmanial activity against Leishmania donovani promastigotes after 48 hrs by alamar blue assay
Format: functional, organism-based
Record form. Attribute: IC50. Fill in for each entry.

Completed entries (count: 3):
[
  {
    "Compound": "C[C@H]1N[C@@H](CCCCCCCCCCC2=C[C@@H](CCCCCCCCCC[C@H]3CC[C@@H](O)[C@@H](C)N3)[C@@H]3CCCN3C2)CC[C@H]1O [JULIPROSOPINE]",
    "Assayed System": "Leishmania donovani",
    "IC50": "0.75 µg/mL"
  },
  {
    "Compound": "N=C(N)c1ccc(OCCCCCOc2ccc(C(=N)N)cc2)cc1 [PENTAMIDINE]",
    "Assayed System": "Leishmania donovani",
    "IC50": "0.5 µg/mL"
  },
  {
    "Compound": "C[C@@H]1N[C@H](CCCCCCCCCCc2cc(CCCCCCCCCC[C@@H]3CC[C@@H](O)[C@H](C)N3)c3[n+](c2)CCC3)CC[C@H]1O.[Cl-] [PROSOPILOSIDINE DIHYDROCHLORIDE]",
    "Assayed System": "Leishmania donovani",
    "IC50": "2.8 µg/mL"
  }
]

Consider the record given below.
Data request: # return IC50 for C[C@H]1N[C@@H](CCCCCCCCCCC2=C[C@@H](CCCCCCCCCC[C@@H]3CC[C@H](O)[C@@H](C)N3)[C@@H]3CCCN3C2)CC[C@H]1O.Cl.Cl , test system: Leishmania donovani
Data returned: 0.7 µg/mL

====

Test system: Cryptococcus neoformans
Assay: Antimicrobial activity against Cryptococcus neoformans ATCC 90113 by NCCLS method
Format: functional, organism-based
Record form. Attribute: MFC. Fill in for each entry.
Answers are plain numbers, in µg/mL.

[
  {
    "Compound": "C[C@H]1N[C@@H](CCCCCCCCCCC2=C[C@@H](CCCCCCCCCC[C@@H]3CC[C@H](O)[C@@H](C)N3)[C@@H]3CCCN3C2)CC[C@H]1O.Cl.Cl",
    "Readout Unit": "µg/mL",
    "Number": 2.5
  },
  {
    "Compound": "C[C@@H]1N[C@H](CCCCCCCCCCc2cc(CCCCCCCCCC[C@@H]3CC[C@@H](O)[C@H](C)N3)c3[n+](c2)CCC3)CC[C@H]1O.[Cl-] [PROSOPILOSIDINE DIHYDROCHLORIDE]",
    "Readout Unit": "µg/mL",
    "Number": 2.5
  },
  {
    "Compound": "C[C@@H]1N[C@H](CCCCCCCCCCc2cc(CCCCCCCCCC[C@H]3CC[C@@H](O)[C@@H](C)N3)c[n+]3c2CCC3)CC[C@H]1O [ISOPROSOPILOSIDINE]",
    "Readout Unit": "µg/mL",
    "Number": 1.25
  },
  {
    "Compound": "C[C@@H]1N[C@H](CCCCCCCCCCC2=C[C@@H](CCCCCCCCCC[C@@H]3CC[C@@H](O)[C@H](C)N3)[C@@H]3CCCN3C2)CC[C@H]1O [PROSOPILOSINE]",
    "Readout Unit": "µg/mL",
    "Number": 1.25
  }
]

Consider the record given below.
Data request: Complete the entry with MFC for C[C@H]1N[C@@H](CCCCCCCCCCC2=C[C@@H](CCCCCCCCCC[C@@H]3CC[C@H](O)[C@@H](C)N3)[C@@H]3CCCN3C2)CC[C@H]1O [ISOPROSOPILOSINE]
Data returned: 0.63

====

Tested on: Staphylococcus aureus
Assay: Antimicrobial activity against methicillin-resistant Staphylococcus aureus ATCC 43300 by NCCLS method
Format: functional, organism-based
Active and inactive are the calls of the source. The calls are words filed in the database; no cut-off is given here.
Observation Type: MBC

Completed entries (count: 4):
[
  {
    "Smiles": "C[C@H]1N[C@@H](CCCCCCCCCCC2=C[C@@H](CCCCCCCCCC[C@@H]3CC[C@H](O)[C@@H](C)N3)[C@@H]3CCCN3C2)CC[C@H]1O",
    "MBC": "inactive"
  },
  {
    "Smiles": "C[C@@H]1N[C@H](CCCCCCCCCCc2cc(CCCCCCCCCC[C@@H]3CC[C@H](O)[C@@H](C)N3)c3[n+](c2)CCC3)CC[C@H]1O.[Cl-]",
    "MBC": "5 mg/L"
  },
  {
    "Smiles": "C[C@H]1N[C@@H](CCCCCCCCCCC2=C[C@@H](CCCCCCCCCC[C@H]3CC[C@@H](O)[C@@H](C)N3)[C@@H]3CCCN3C2)CC[C@H]1O",
    "MBC": "inactive"
  },
  {
    "Smiles": "C[C@@H]1N[C@H](CCCCCCCCCCc2cc(CCCCCCCCCC[C@H]3CC[C@@H](O)[C@@H](C)N3)c[n+]3c2CCC3)CC[C@H]1O",
    "MBC": "20 mg/L"
  }
]

Data request: Complete the entry with MBC for O=C(O)c1cn(C2CC2)c2cc(N3CCNCC3)c(F)cc2c1=O
Data returned: inactive
